MEASURED TARGET: T1, integrin αVβ3 (UniProt P06756 31-992; P05106 27-718)
T1 construct: Coated on the ELISA plate
T1 sequence (P06756 31-992, chain 1 of 2): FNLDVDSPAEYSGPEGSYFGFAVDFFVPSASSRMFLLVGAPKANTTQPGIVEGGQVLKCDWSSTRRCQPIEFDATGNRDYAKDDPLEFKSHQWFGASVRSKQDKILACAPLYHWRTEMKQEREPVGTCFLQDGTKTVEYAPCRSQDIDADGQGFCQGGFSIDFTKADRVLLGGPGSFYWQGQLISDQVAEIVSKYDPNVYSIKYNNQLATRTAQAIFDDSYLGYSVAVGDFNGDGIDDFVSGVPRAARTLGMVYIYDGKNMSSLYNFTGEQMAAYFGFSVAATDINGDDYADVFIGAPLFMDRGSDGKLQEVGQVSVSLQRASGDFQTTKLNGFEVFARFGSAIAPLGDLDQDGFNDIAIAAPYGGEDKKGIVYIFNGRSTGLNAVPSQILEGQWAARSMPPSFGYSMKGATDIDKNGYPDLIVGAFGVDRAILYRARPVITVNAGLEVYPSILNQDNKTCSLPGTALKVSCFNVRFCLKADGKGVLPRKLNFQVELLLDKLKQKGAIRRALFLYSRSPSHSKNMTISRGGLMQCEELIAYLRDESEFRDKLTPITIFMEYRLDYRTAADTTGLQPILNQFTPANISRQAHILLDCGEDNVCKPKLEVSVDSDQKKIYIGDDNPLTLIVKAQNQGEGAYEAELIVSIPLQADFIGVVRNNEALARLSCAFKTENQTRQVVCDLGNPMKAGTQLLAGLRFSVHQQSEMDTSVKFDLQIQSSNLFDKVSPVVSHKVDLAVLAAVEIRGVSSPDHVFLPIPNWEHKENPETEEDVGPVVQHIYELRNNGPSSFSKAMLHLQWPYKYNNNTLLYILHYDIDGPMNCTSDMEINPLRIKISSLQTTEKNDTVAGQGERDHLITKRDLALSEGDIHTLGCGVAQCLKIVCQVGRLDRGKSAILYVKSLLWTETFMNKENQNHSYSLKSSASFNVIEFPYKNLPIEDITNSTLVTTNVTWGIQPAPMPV
T1 sequence (P05106 27-718, chain 2 of 2): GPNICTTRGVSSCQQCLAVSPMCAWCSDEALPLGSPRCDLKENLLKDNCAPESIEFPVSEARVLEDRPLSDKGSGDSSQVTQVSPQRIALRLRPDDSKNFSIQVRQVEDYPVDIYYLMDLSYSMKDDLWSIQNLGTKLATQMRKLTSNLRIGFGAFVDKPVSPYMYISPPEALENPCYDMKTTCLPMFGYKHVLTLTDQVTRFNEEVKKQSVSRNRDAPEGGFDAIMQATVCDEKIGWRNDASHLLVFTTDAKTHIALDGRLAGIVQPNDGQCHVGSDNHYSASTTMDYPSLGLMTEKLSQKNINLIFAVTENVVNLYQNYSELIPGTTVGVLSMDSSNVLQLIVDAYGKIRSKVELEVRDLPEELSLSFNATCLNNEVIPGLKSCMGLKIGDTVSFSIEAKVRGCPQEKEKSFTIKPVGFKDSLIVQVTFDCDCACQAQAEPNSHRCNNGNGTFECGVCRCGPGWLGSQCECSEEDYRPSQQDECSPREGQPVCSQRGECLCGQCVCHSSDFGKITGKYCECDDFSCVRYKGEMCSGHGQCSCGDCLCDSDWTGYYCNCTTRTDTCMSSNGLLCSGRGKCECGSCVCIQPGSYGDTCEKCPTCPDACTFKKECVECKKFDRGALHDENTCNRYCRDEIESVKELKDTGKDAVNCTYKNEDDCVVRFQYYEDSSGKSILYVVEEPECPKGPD
ASSAY DETAILS: ELISA, integrin coated, anti-MICA-HRP
Reported signal values for a set of binders
Give the quantity in OD, number only.

Some binders with recorded signal:
BINDER | UNIT TAG | ASSAY RESULT
soluble MICA generated by pKK50 (extended loop 5.1sp in loop 3) (designed binder) EPHSLRYNLTVLSWDGSVQSGFLTEVHLDGQPFLRCDRQKCRAKPQGQWAEDVLGNKTWDRETRDLTGNGKDLRMTLAHIKDQKEGLHSLQEIRVCEIHEDNSTRSSQHFYYDGELFLSQNLETKEWTMPQSSRAQTLAMNVRNFLKEDAMKTKTHYHAMHADCLQELRRYLKSGVVLRRTVPPMVNVTRSEASEGNITVTCRASGFYPWNITLSWRQDGVSLSHDTQQWGDVLPDGNGTYQTWVATRISGGSGGGSVTRGDTFTQSSGGSGGGCYMEHSGNHSTHPVPSGK | OD | 0.546
soluble MICA generated by pKK37 (loop 3.2 in loop 1) (designed binder) HHHHHHEPHSLRYNLTVLSWDGSVQSGFLTEVHLDGQPFLRCDRQKCRAKPQGQWAEDVLGNKTWDRETRDLTGNGKDLRMTLAHIKDQKEGLHSLQEIRVCEIHEDNSTRSSQHFYYDGELFLSQNLETEEWTMPQSSRAQTLAMNVRNFLKEDAMKTKTHYHAMHADCLQELRRYLKSGVVLRRTVPPMVNVTRTSRGDHPRTQVTCRASGFYPWNITLSWRQDGVSLSHDTQQWGDVLPDGNGTYQTWVATRICQGEEQRFTCYMEHSGNHSTHPVPSGK | OD | 0.777
soluble MICA generated by pKK35 (His10sp in loop 3) (designed binder) EPHSLRYNLTVLSWDGSVQSGFLTEVHLDGQPFLRCDRQKCRAKPQGQWAEDVLGNKTWDRETRDLTGNGKDLRMTLAHIKDQKEGLHSLQEIRVCEIHEDNSTRSSQHFYYDGELFLSQNLETKEWTMPQSSRAQTLAMNVRNFLKEDAMKTKTHYHAMHADCLQELRRYLKSGVVLRRTVPPMVNVTRSEASEGNITVTCRASGFYPWNITLSWRQDGVSLSHDTQQWGDVLPDGNGTYQTWVATRISGGSGGGSHHHHHHHHHHSGGSGGGCYMEHSGNHSTHPVPSGK | OD | 0.419
soluble MICA generated by pKK38 (loop 3.3 in loop 1) (designed binder) HHHHHHEPHSLRYNLTVLSWDGSVQSGFLTEVHLDGQPFLRCDRQKCRAKPQGQWAEDVLGNKTWDRETRDLTGNGKDLRMTLAHIKDQKEGLHSLQEIRVCEIHEDNSTRSSQHFYYDGELFLSQNLETEEWTMPQSSRAQTLAMNVRNFLKEDAMKTKTHYHAMHADCLQELRRYLKSGVVLRRTVPPMVNVTRVPRGDSDLTVTCRASGFYPWNITLSWRQDGVSLSHDTQQWGDVLPDGNGTYQTWVATRICQGEEQRFTCYMEHSGNHSTHPVPSGK | OD | 0.291
soluble MICA generated by pKK36 (loop 3.1 in loop 1) (designed binder) HHHHHHEPHSLRYNLTVLSWDGSVQSGFLTEVHLDGQPFLRCDRQKCRAKPQGQWAEDVLGNKTWDRETRDLTGNGKDLRMTLAHIKDQKEGLHSLQEIRVCEIHEDNSTRSSQHFYYDGELFLSQNLETEEWTMPQSSRAQTLAMNVRNFLKEDAMKTKTHYHAMHADCLQELRRYLKSGVVLRRTVPPMVNVTSRGDHPRTQVTCRASGFYPWNITLSWRQDGVSLSHDTQQWGDVLPDGNGTYQTWVATRICQGEEQRFTCYMEHSGNHSTHPVPSGK | OD | 0.55

Then this binder:
Task: # return recorded signal for input soluble MICA generated by pKK42 (loop 5.3 in loop 1) (designed binder) HHHHHHEPHSLRYNLTVLSWDGSVQSGFLTEVHLDGQPFLRCDRQKCRAKPQGQWAEDVLGNKTWDRETRDLTGNGKDLRMTLAHIKDQKEGLHSLQEIRVCEIHEDNSTRSSQHFYYDGELFLSQNLETEEWTMPQSSRAQTLAMNVRNFLKEDAMKTKTHYHAMHADCLQELRRYLKSGVVLRRTVPPMVNVTHLARGDDLTYVTCRASGFYPWNITLSWRQDGVSLSHDTQQWGDVLPDGNGTYQTWVATRICQGEEQRFTCYMEHSGNHSTHPVPSGK
Output: 0.526

Provenance of the data: patent EP2658867B1
